Target: T1, human TIGIT expressed on cells (human, UniProt Q495A1 22-244)
T1 construct: whole, on cells; on Jurkat E6.1 cells transduced with human TIGIT, on Promega TIGIT Effector cells or on human primary T cells; the assay field says which; also called hTIGIT; Jurkat-hTIGIT
T1 sequence (looked up): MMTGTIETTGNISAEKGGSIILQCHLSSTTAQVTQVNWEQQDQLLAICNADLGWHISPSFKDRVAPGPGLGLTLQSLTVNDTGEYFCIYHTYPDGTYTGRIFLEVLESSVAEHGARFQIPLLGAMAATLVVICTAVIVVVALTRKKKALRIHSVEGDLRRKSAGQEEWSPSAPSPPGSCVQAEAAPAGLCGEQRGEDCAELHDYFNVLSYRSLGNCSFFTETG
Test: flow cytometry, primary CD8+ T cells of healthy human PBMC, MFI
readout: EC50

[[record]]
binder = "22G2 (comparative anti-TIGIT antibody, human IgG1) (antibody, V domains shown, from WO2016/106302; made in HEK cells as human IgG1) VH: QVHLQESGPGLVKPSETLSLTCTVSGGSVSSGIYYWSWIRQPPGKGLEWIGYIYYSGSTNYNPSLKSRVTISVDTSKNQFSLKLSSVTAADTAVYYCARDYYVSGNYYNVDYYFFGVDVWGQGTTVTVSS VL: EIVLTQSPATLSLSPGERATLSCRASQSVSSYLAWYQQKPGQAPRLLIYDASNRATGIPARFSGSGSGTDFTLTISSLEPEDFAVYYCQQRSNWPPLFTFGPGTKVDIK"
readout = "EC50"
assay_result = "1.17 nM"

[[record]]
binder = "31C6 (MEB125.31C6.A1.205 VH4/VL1; comparative anti-TIGIT antibody, human IgG1) (antibody, V domains shown, from WO2016/028656; made in HEK cells as human IgG1; also called 3106 (as the text prints it)) VH: EVQLVQSGAEVKKPGASVKVSCKASGYTFSSYVMHWVRQAPGQGLEWIGYIDPYNDGAKYAQKFQGRVTLTSDKSTSTVYMELSSLRSEDTAVYYCARGGPYGWYFDVWGQGTTVTVSS VL: DIQMTQSPSSLSASVGDRVTITCRASEHIYSYLSWYQQKPGKAPKLLIYNAKTLAEGVPSRFSGSGSGTDFTLTISSLQPEDFATYYCQHHFGSPLTFGQGTRLEIK"
readout = "EC50"
assay_result = "0.39 nM"

[[record]]
binder = "TIG1 (comparative anti-TIGIT antibody, human IgG1) (antibody, V domains shown, from WO2017/152088; made in HEK cells as human IgG1) VH: DVQLVESGGGLVQPGGSRKLSCAASGFTFSNFGMHWVRQAPEKGLEWVAFISSGSSSIYYADTVKGRFTISRDNPKNTLFLQMTSLRSEDTAMYYCARMRLDYYAMDYWGQGTSVTVSS VL: DVQITQSPSYLAASPGETITINCRASKSISKYLAWYQEKPGKTNKLLIYSGSTLQSGIPSRFSGSGSGTDFTLTISSLEPEDFAMYYCQQHNEYPWTFGGGTKLEIK"
readout = "EC50"
assay_result = "0.38 nM"

[[record]]
binder = "313M32 (comparative anti-TIGIT antibody, human IgG1) (antibody, V domains shown, from WO2016/191643; made in HEK cells as human IgG1; the VL as printed ends at ...TFG (FR4 not complete); also called 313M2) VH: QVQLQESGPGLVKPSETLSLTCAVSGYSITSDYAWNWIRQPPGKGLEWIGYISYSGSTSYNPSLRSRVTISRDTSKNQFFLKLSSVTAADTAVYYCARRQVGLGFAYWGQGTLVTVSS VL: DIQMTQSPSSLSASVGDRVTITCKASQDVSTAVAWYQQKPGKAPKLLIYSASYRYTGVPSRFSGSGSGTDFTFTISSLQPEDIATYYCQQHYSTPWTFG"
readout = "EC50"
assay_result = "1.45 nM"

